Each record here notes measured pKd.
- Tested system: cynomolgus monkey (cyno) TIGIT protein (cynomolgus monkey, UniProt A0A7N9I9V4 89-209)
- Sequence (A0A7N9I9V4 entry or part of it): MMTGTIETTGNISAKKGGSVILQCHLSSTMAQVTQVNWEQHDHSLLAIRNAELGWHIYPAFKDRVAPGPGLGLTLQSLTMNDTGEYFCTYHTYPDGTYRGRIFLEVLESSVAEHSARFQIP
- Protocol description: SPR, monovalent affinity
The value called pKd is obtained by taking minus log10 of the concentration in mol/L.

Reference set (3 entries):
>  <Binder>
rat10A5 (antibody, V domains shown, SD rat-derived; rat V domains as FR/HVR pieces; also called 1.10A5; Chimeric 1.10A5) VH: QVSLKESGPGILQPSHTLSLTCSFSGFSLTTYGMGVSWIRQPSEKGLEWLASIWWNGNTYYNPSLRSRLTVSKDTSNDQAFLNVTSVDTTDTATYYCAHTGGAVITWFAYWGQGTLVTVSS VL: NIVMTQSPKSMSISIGDRVTMNCKASQSVGKNIAWYQQKTGQSPQLLIYYASNRYTGVPDRFTGGGSGTDFTLTINSVQAEDAAFFYCQHIYNSPYPFGTGTKLEIK

>  <Quantity name>
pKd

>  <Reported value>
9.39

$$$$
>  <Binder>
rat15C8 (antibody, V domains shown, SD rat-derived; rat V domains as FR/HVR pieces; also called 1.15C8; Chimeric 1.15C8) VH: EVQLQQSGPELQRPGASVKLSCKASGYTFTEHSIYWLKQRPKQSLEIIGRIDPKNGRTYFVDKFKNRATLTTNTSSNTAYMQLSSLTSEDTAIYFCARIDGFYFDFWGQGVMVTASS VL: NIHLTQSPSLLSASVGDRVTLSCKGSQNVNKYLVWYQQKLGEAPKLLIYSTDNLQSGIPSRFSGSGSGTDYTLTISSLQPEDAATYFCYQYNNGFTFGSGTKLEIK

>  <Quantity name>
pKd

>  <Reported value>
9.60

$$$$
>  <Binder>
7.4A3.C96Y.Q1E (antibody, V domains shown, No entry is tied to this variant by name; built from 7.4A3 with the two named changes (Q1E in the heavy chain, C96Y in HVR-L3); also called 7.4A3.Q1E.C96Y) VH: EVQLVQSGSDLKKPGASVRVSCKASGYTFTSYPMNWVRQAPGHGLEWMGWINTNTGNPTYVQGFTGRFVFSLDTSVNTAYLQISSLKAEDTAVYFCARTGGHTYDSYAFDVWGQGTMVTVSS VL: DIQLTQSPTFLSASVGDRVTITCRASQVISSSLAWYQQNPGKAPKLLIYAASTLQSGVPSRFSGSGSGTEFTLTISSLQPEDFVTYYCQHLHGYPYNFGQGTKVEIK

>  <Quantity name>
pKd

>  <Reported value>
7.45

$$$$

// sample 4.1A4.Q1E.C96 (antibody, V domains shown, built from its name as 4.1A4 with Q1E in VH and C96 kept in VL) VH: EVQLVQSGSELKKPGASVKVSCKASGYTLTNYPMNWVRQAPGRGLEWMGWINTNTGSPAYAQDFTERFVFSLDTSVTTAYLQISSLKAEDTAVYYCARTAITSVYHFDYWGQGTLVTVSS VL: DIQLTQSPSFLSASVGDRVTITCRASQGISSYLAWYQQKPGKAPRVLIYGATTLQSGVPSRFSGSESGTEFTLTISSLQPEDLATYYCQKLNSHPCSFGQGTKVEIK , its pKd was 8.62

Short answer for rat7E7 (antibody, V domains shown, SD rat-derived; rat V domains as FR/HVR pieces; also called 1.7E7; Chimeric 1.7E7) VH: EVQLQQSGPELQRPGASVKLSCKATGYTFTEYSIYWVKQRPKQSLEIIGRIDPKNGRTYYVDKFKNRATLTADTSSNTAYMQLSSLTSEDTATYFCTRIYGFYFDFWGQGVMVTASS VL: NIHLTQSPSLLSASVGDRVTLSCKGSQNVNKYLVWYQQKLGEAPKLLIYNTDNLQSGIPSRFSGSGSGTDYTLTISSLQPEDAATYFCYQYNNGFTFGSGTKLEIK : pKd was 10.17

Lab note: measured pKd of 7.4A3.C96S.Q1E (antibody, V domains shown, also called 7.4A3.Q1E.C96S) VH: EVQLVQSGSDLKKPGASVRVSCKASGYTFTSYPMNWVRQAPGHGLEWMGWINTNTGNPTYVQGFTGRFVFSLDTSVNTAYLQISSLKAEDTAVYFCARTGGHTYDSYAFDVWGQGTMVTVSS VL: DIQLTQSPTFLSASVGDRVTITCRASQVISSSLAWYQQNPGKAPKLLIYAASTLQSGVPSRFSGSGSGTEFTLTISSLQPEDFVTYYCQHLHGYPSNFGQGTKVEIK was 8.69

Sure, the documented pKd for h6B2.L1H1 (antibody, V domains shown, Humanized; FR/HVR pieces in order; also called h1.6B2.L1H1) VH: EVTLKESGPALVKPTQTLTLTCTFSGFSLSTYGMGVSWIRQPPGKALEWLASIWWNGNTYYNPSLKSRLTVTKDASKNQAVLTMTNMDPVDTATYYCAHTGGAVITWFAYWGQGTLVTVSS VL: DIQMTQSPSSLSASVGDRVTITCKASQSVGKNIAWYQQKPGKSPKLLIYYASNRYTGVPSRFSGSGSGTDFTFTISSLQPEDIATYYCQHIYNSPYPFGQGTKVEIK is 9.02

# binder rat6B2 (antibody, V domains shown, SD rat-derived; rat V domains as FR/HVR pieces; also called 1.6B2; Chimeric 1.6B2) VH: QVSLKESGPGILQPSHTLSLTCSFSGFSLSTYGMGVSWIRQPSEKGLEWLASIWWNGNTYYNPSLKSRLTVSKDASNDQAFLNVTSVDTTDTATYYCAHTGGAVITWFAYWGQGTLVTVSS VL: NIVMTQSPKSMSISVGDRVTMNCKASQSVGKNIAWYQQKPGQSPKLLIYYASNRYTGVPDRFTGGGSGTDFTLTINTVQAEDAAFFYCQHIYNSPYPFGTGTKLEIK ; its pKd = 9.54
